tested on: Candida krusei ATCC 6258; test: ≥ marks a high value that may be exact or a test limit, other limits are often not marked, values filed in µg/mL are converted to µM
endpoint: MIC (µM)
The reply should contain only the number, in µM.

**Query** // returns reported MIC for input `CC[C@H](C)[C@H](NC(=O)[C@H](C)NC(=O)CNC(=O)[C@H](Cc1ccccc1)NC(=O)[C@@H](NC(=O)[C@@H](N)CC(=O)O)[C@@H](C)CC)C(=O)N[C@@H](Cc1c[nH]c2ccccc12)C(=O)N1CCC[C@H]1C(=O)N[C@@H](CC(C)C)C(=O)N[C@@H](C)C(=O)N[C@@H](CC(C)C)C(=O)NCC(=O)N[C@@H](C)C(=O)N[C@@H](CC(C)C)C(=O)N[C@@H](CCCCN)C(=O)N[C@@H](CC(N)=O)C(=O)N[C@@H](CC(C)C)C(=O)N[C@H](C(=O)N[C@@H](CCCCN)C(N)=O)[C@@H](C)CC`
**Result** 16

----------
tested on: Pseudomonas aeruginosa PAO1; experiment: ≥ marks a high value that may be exact or a test limit, other limits are often not marked, values filed in µg/mL are converted to µM
endpoint: MIC

**Query** Given the entry `CC[C@H](C)[C@H](N)C(=O)N[C@@H](CC(C)C)C(=O)NCC(=O)N[C@@H](CCCCN)C(=O)N[C@H](C(=O)N[C@@H](Cc1c[nH]c2ccccc12)C(=O)N[C@@H](CCC(=O)O)C(=O)NCC(=O)N[C@H](C(=O)N[C@@H](CCCCN)C(=O)N[C@@H](CO)C(=O)N[C@@H](CC(C)C)C(=O)N[C@@H](Cc1ccccc1)C(N)=O)[C@@H](C)CC)[C@@H](C)CC` , what MIC was observed with Pseudomonas aeruginosa PAO1?
**Result** > 128 µM

**Query** # iterate: `CC[C@H](C)[C@H](NC(=O)[C@H](CC(=O)O)NC(=O)[C@H](Cc1ccccc1)NC(=O)[C@H](CC(C)C)NC(=O)CN)C(=O)N[C@H](C(=O)N[C@@H](CCCCN)C(=O)N[C@@H](CCCCN)C(=O)N[C@H](C(=O)N[C@H](C(N)=O)C(C)C)C(C)C)C(C)C`
**Result** > 115 µM

----------
// Staphylococcus epidermidis ATCC 12228 MIC records
The reply should contain only the number, in µM.

**Query** // returns reported MIC for input `CC[C@H](C)[C@H](NC(=O)[C@H](CCCN=C(N)N)NC(=O)CNC(=O)[C@H](CC(C)C)NC(=O)[C@H](Cc1ccccc1)NC(=O)[C@H](CCCCN)NC(=O)[C@H](CO)NC(=O)[C@H](Cc1ccccc1)NC(=O)[C@H](Cc1c[nH]c2ccccc12)NC(=O)[C@H](CCCN=C(N)N)NC(=O)[C@@H](NC(=O)[C@@H](N)Cc1ccccc1)C(C)C)C(=O)N[C@@H](CC(C)C)C(N)=O`
**Result** 3

**Query** # iterate: `CC(C)C[C@H](NC(=O)[C@H](Cc1c[nH]c2ccccc12)NC(=O)[C@H](CCCCN)NC(=O)[C@H](CC(C)C)NC(=O)[C@H](CC(C)C)NC(=O)[C@H](CCCCN)NC(=O)[C@H](CCCCN)NC(=O)[C@H](CC(C)C)NC(=O)[C@H](CC(C)C)NC(=O)[C@H](CCCCN)NC(=O)[C@@H](N)CCCCN)C(N)=O`
**Result** 0.709

----------
// Staphylococcus aureus ATCC 43300 MIC records

**Query** Given the entry `CC[C@H](C)[C@@H]1NC(=O)CNC(=O)[C@H](C)NC(=O)[C@H](Cc2ccc(O)cc2)NC(=O)[C@@H]2CSSC[C@H](NC1=O)C(=O)N[C@@H](Cc1ccc(O)cc1)C(=O)N[C@@H](CCCN=C(N)N)C(=O)N[C@@H](CCCN=C(N)N)C(=O)N[C@H](C(=O)N[C@@H](CCCN=C(N)N)C(=O)O)CSSC[C@H](NC(=O)[C@H](Cc1c[nH]c3ccccc13)NC(=O)[C@@H](N)CCCCN)C(=O)N[C@@H](Cc1ccccc1)C(=O)N[C@@H](CCCN=C(N)N)C(=O)N[C@@H](CCCN=C(N)N)C(=O)N2` , what MIC was observed with Staphylococcus aureus ATCC 43300?
**Result** > 7.14 µM

**Query** # iterate: `CC[C@H](C)[C@H](NC(=O)[C@H](C)NC(=O)[C@H](CC(C)C)NC(=O)[C@H](CO)NC(=O)[C@H](C)NC(=O)[C@@H](NC(=O)CNC(=O)[C@H](CO)NC(=O)[C@@H](NC(=O)[C@@H](NC(=O)[C@H](Cc1cnc[nH]1)NC(=O)[C@@H]1CCCN1C(=O)[C@@H](NC(=O)[C@H](CC(C)C)NC(=O)[C@H](CO)NC(=O)[C@H](CC(C)C)NC(=O)[C@@H](N)Cc1ccccc1)[C@@H](C)CC)[C@@H](C)CC)C(C)C)C(C)C)C(=O)N[C@@H](Cc1cnc[nH]1)C(=O)N[C@@H](Cc1ccccc1)C(N)=O`
**Result** > 200 µM

----------
tested on: Staphylococcus aureus ATCC 43300
Give measured MIC for each item. Keep answers brief.
The reply should contain only the number, in µM.

**Query** // returns reported MIC for input `CC[C@H](C)[C@H](NC(=O)CN)C(=O)N[C@@H](CCSC)C(=O)N[C@@H](CO)C(=O)N[C@@H](CO)C(=O)N[C@@H](CC(C)C)C(=O)N[C@@H](CCSC)C(=O)N[C@@H](CCCCN)C(=O)N[C@@H](CCCCN)C(=O)N[C@@H](CC(C)C)C(=O)N[C@@H](C)C(=O)N[C@@H](CCCCN)C(=O)N[C@H](C(=O)N[C@H](C(=O)N[C@@H](CCCCN)C(=O)N[C@@H](CCCCN)C(N)=O)[C@@H](C)CC)[C@@H](C)CC`
**Result** 33

**Query** # iterate: `CC[C@H](C)[C@H](NC(=O)[C@H](CCCCN)NC(=O)[C@H](CCCN=C(N)N)NC(=O)[C@H](CC(C)C)NC(=O)[C@H](Cc1ccccc1)NC(=O)[C@H](CCCN=C(N)N)NC(=O)CNC(=O)[C@H](Cc1ccccc1)NC(=O)[C@H](CCCN=C(N)N)NC(=O)CNC(=O)[C@H](CCCN=C(N)N)NC(=O)[C@H](CCC(N)=O)NC(=O)[C@@H](NC(=O)[C@@H](N)CC(C)C)C(C)C)C(=O)N[C@@H](CCCN=C(N)N)C(=O)N[C@@H](CCCN=C(N)N)C(=O)N[C@@H](Cc1ccccc1)C(=O)N[C@@H](CCCN=C(N)N)C(=O)O`
**Result** 2

**Query** # iterate: `CC[C@H](C)[C@H](NC(=O)CN)C(=O)N[C@@H](CCSC)C(=O)N[C@@H](CO)C(=O)N[C@@H](CO)C(=O)N[C@@H](CC(C)C)C(=O)N[C@@H](CCSC)C(=O)N[C@@H](CCCCN)C(=O)N[C@@H](CCCCN)C(=O)N[C@@H](CC(C)C)C(=O)N[C@@H](C)C(=O)N[C@@H](C)C(=O)N[C@@H](Cc1cnc[nH]1)C(=O)N[C@H](C(=O)N[C@@H](C)C(=O)N[C@@H](CCCCN)C(N)=O)[C@@H](C)CC`
**Result** 63

----------
// Staphylococcus aureus KCTC 1621 MIC records

**Query** // returns reported MIC for input `CC[C@H](C)[C@H](NC(=O)[C@H](CCCCN)NC(=O)[C@H](CCCCN)NC(=O)[C@H](Cc1ccccc1)NC(=O)[C@@H](N)Cc1c[nH]c2ccccc12)C(=O)N1CCC[C@H]1C(=O)N[C@@H](CCCCN)C(=O)N[C@@H](Cc1ccccc1)C(=O)N[C@@H](CC(C)C)C(=O)N[C@@H](Cc1cnc[nH]1)C(=O)N[C@@H](CC(C)C)C(=O)N[C@@H](CC(C)C)C(=O)N[C@@H](CCCCN)C(=O)N[C@@H](CCCCN)C(=O)N[C@@H](Cc1ccccc1)C(N)=O`
**Result** 3.12 µM

**Query** # iterate: `CC[C@H](C)[C@H](NC(=O)[C@H](CCCCN)NC(=O)[C@H](CCCCN)NC(=O)[C@@H](N)Cc1c[nH]c2ccccc12)C(=O)N1CCC[C@H]1C(=O)N[C@@H](CCCCN)C(=O)N[C@@H](Cc1ccccc1)C(=O)N[C@@H](CC(C)C)C(=O)N[C@@H](Cc1cnc[nH]1)C(=O)N[C@@H](CC(C)C)C(=O)N[C@@H](C)C(=O)N[C@@H](CCCCN)C(=O)N[C@@H](CCCCN)C(=O)N[C@@H](Cc1ccccc1)C(N)=O`
**Result** 3.12 µM

**Query** # iterate: `CC[C@H](C)[C@H](NC(=O)[C@H](CCCCN)NC(=O)[C@H](CCCCN)NC(=O)[C@H](CC(C)C)NC(=O)[C@H](CCCCN)NC(=O)[C@H](CCC(=O)O)NC(=O)CN)C(=O)NCC(=O)N[C@@H](CCC(N)=O)C(=O)N[C@@H](CCCCN)C(=O)N[C@H](C(=O)N[C@@H](CCCCN)C(=O)N[C@@H](CCCCN)C(=O)N[C@@H](Cc1ccccc1)C(=O)N[C@@H](Cc1ccccc1)C(=O)N[C@@H](CCC(N)=O)C(=O)N[C@@H](CCCCN)C(=O)N[C@@H](CC(C)C)C(=O)O)[C@@H](C)CC`
**Result** 25 µM

Entry source: DBAASP
